Answer each item with its documented Ratio.
- TEST TARGET: Cholecystokinin receptor type A (Homo sapiens)
- EXPERIMENTAL PROTOCOL: Ratio of binding affinity of Cholecystokinin type A receptor […]
Starred links: 1 amine or outer side, 2 acyl side, 3 side chain; linkers in the order of their positions; H or OH if unused. Non-standard residues stand in square brackets, D forms with d. Residues, ends and D or L forms follow the SMILES beside them. X1 = CCCC1C[C@@H](C(=O)[*:2])N([*:1])C1; Nle = CCCC[C@H](N)C(=O)O

Ratio recorded for this compound, CCCC[C@@H](C(=O)N[C@@H](CC(=O)O)[C@@H](Cc1ccccc1)C(N)=O)n1nnnc1[C@H](Cc1c[nH]c2ccccc12)NC(=O)CN , is > 1.9

Ratio recorded for this compound, CCCC[C@H](NC(=O)[C@H](Cc1c[nH]c2ccccc12)NC(=O)CN)C(=O)N[C@@H](CC(=O)O)C(=O)N[C@@H](Cc1ccccc1)C(N)=O (H-GW[Nle]DF-NH2) , is 12.9

Ratio recorded for this compound, CCCC[C@@H](C(=O)N[C@@H](CC(=O)OCc1ccccc1)[C@@H](Cc1ccccc1)C(N)=O)n1nnnc1[C@H](Cc1c[nH]c2ccccc12)NC(=O)CNC(=O)OC(C)(C)C (mixture of isomers) , is 0.09

Ratio recorded for this compound, CCCC[C@@H](C(=O)N[C@@H](CC(=O)OCc1ccccc1)[C@@H](Cc1ccccc1)C(N)=O)n1nnnc1[C@H](Cc1c[nH]c2ccccc12)NC(=O)OC(C)(C)C (mixture of isomers) , is 0.02

Ratio recorded for this compound, CCCC1C[C@@H](C(=O)N[C@@H](CC(=O)O)C(=O)N[C@@H](Cc2ccccc2)C(N)=O)N(C(=O)[C@H](Cc2c[nH]c3ccccc23)NC(=O)CN)C1 (stereo not given in full) (H-GW[X1]DF-NH2) , is 1420
